Listing of entries alongside the reported log10 IC50.
# Tested on: SpsB (Staphylococcus aureus signal peptidase) (Staphylococcus aureus)
# Construct: This assay uses a suspension of Staphylococcus aureus cells as a source of SpsB instead of recombinant SpsB protein; endogenous in cells; host or cells: S. aureus, USA300 background, overexpressing SpsB (whole-cell suspension from frozen pellets)
# Sequence (P0A070 whole entry): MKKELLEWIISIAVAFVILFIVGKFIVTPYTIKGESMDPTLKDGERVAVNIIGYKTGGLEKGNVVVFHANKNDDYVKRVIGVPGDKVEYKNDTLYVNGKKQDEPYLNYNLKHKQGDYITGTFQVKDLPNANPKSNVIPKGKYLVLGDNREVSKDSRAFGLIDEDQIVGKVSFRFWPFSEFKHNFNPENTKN
# Experiment summary: cell-based
# Type: biochemical
# Measurement setup: SpsB IC50, whole-cell S. aureus (USA300 background, overexpressing SpsB) as SpsB source; fluorogenic peptide substrate, kinetic read 30 min
Use the decimal logarithm of IC50 (pM).

CCCCCCCCCC(=O)N[C@H](C)C(=O)NCC(=O)N[C@@H](CCN)C(=O)N(C)[C@@H]1C(=O)N[C@@H](C)C(=O)N[C@H](C(=O)NCC#N)Cc2ccc(OCCN)c(c2)-c2cc1ccc2OCCN = 2.81
CC(C)CCc1ccc(-c2ccc(C(=O)N[C@@H](CCN)C(=O)N(C)[C@@H]3C(=O)N[C@@H](C)C(=O)N[C@H](C(=O)NCC#N)Cc4ccc(OCCN)c(c4)-c4cc3ccc4OCCN)cc2)cc1 = 3.04
CCCCCCCCCCNCCC(=O)N(C)[C@@H]1C(=O)N[C@@H](C)C(=O)N[C@H](C(=O)NCC#N)Cc2ccc(OCCN)c(c2)-c2cc1ccc2O = 2.94
Cc1cc(OCC2CCCCC2)ccc1C(=O)N[C@@H](CCN)C(=O)N(C)[C@@H]1C(=O)N[C@@H](C)C(=O)N[C@H](C(=O)NCC#N)Cc2ccc(OCCN)c(c2)-c2cc1ccc2OCCN = 2.74
CCCCCCCCCCCCCC(=O)N[C@@H](CCN)C(=O)N(C)[C@@H]1C(=O)N[C@@H](C)C(=O)N[C@H](C(=O)NCC#N)Cc2ccc(OCCO)c(c2)-c2cc1ccc2OCCN = 2.89

Hi! What's the reported log10 IC50 for "CCCCCCCCc1ccc(C(=O)N[C@@H](CCN)C(=O)N(C)[C@@H]2C(=O)N[C@@H](C)C(=O)N[C@H](C(=O)NCC#N)Cc3ccc(OCCN)c(c3)-c3cc2ccc3OCCN)c(F)c1" on SpsB (Staphylococcus aureus signal peptidase) (Staphylococcus aureus)? 2.95

Report log10 IC50 for "CCCCCCCCc1ccc(C(=O)N[C@@H](CN)C(=O)N(C)[C@@H]2C(=O)N[C@@H](C)C(=O)N[C@H](C(=O)NCC#N)Cc3ccc(OCCN)c(c3)-c3cc2ccc3OCCN)cc1" tested on SpsB (Staphylococcus aureus signal peptidase) (Staphylococcus aureus). 3.00

Lab note: need log10 IC50 for "CCCCCCCCCCCC(=O)N[C@@H](CCn1cncn1)C(=O)N(C)[C@@H]1C(=O)N[C@@H](C)C(=O)N[C@H](C(=O)NCC#N)Cc2ccc(OCCN)c(c2)-c2cc1ccc2OCCN" on SpsB (Staphylococcus aureus signal peptidase) (Staphylococcus aureus), anyone have it? 3.26

What measured log10 IC50 is associated with "CCCCc1ccc(-c2ccc(C(=O)N[C@@H](CCCCN)C(=O)N(C)[C@@H]3C(=O)N[C@@H](C)C(=O)N[C@H](C(=O)NC4(C#N)CC4)Cc4ccc(O)c(c4)-c4cc3ccc4OCCN)cc2)cc1" on SpsB (Staphylococcus aureus signal peptidase) (Staphylococcus aureus)? 4.30

Write down the reported log10 IC50 of "Cc1cc(C2CCCCC2)ccc1C(=O)N[C@@H](CCN)C(=O)N(C)[C@@H]1C(=O)N[C@@H](C)C(=O)N[C@H](C(=O)NCC#N)Cc2ccc(OCCN)c(c2)-c2cc1ccc2OCCN" , test system: SpsB (Staphylococcus aureus signal peptidase) (Staphylococcus aureus). 2.89
